targetDesc: T1, hRET.mmh (human, UniProt P07949 29-635, biotinylated in the ELISA of Example 4 (biot-hRET.mmh); not in the SPR of Example 3)
T1 construct: also called biot-hRET.mmh; soluble monomeric human RET
measurementNotes: competition sandwich ELISA: 1 nM biot-hRET.mmh + antibody, plate-coated GDNF/GFRα1 co-complex
% Max Blocking values for the binders below.
Provide the reading as a plain figure in %.

- binder: "H4H8080P (antibody, human IgG4, V domains shown, human IgG4 Fc (H4H prefix)) VH: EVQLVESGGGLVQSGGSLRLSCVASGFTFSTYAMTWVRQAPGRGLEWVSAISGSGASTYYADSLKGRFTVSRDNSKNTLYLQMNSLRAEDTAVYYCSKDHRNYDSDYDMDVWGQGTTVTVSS VL: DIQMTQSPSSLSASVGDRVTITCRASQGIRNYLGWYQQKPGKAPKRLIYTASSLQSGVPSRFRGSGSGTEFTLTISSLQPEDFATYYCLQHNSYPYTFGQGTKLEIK"
  % Max Blocking, %: 82

Let us examine a further case.
Quick one: % Max Blocking of H4H8046P (antibody, human IgG4, V domains shown, human IgG4 Fc (H4H prefix)) VH: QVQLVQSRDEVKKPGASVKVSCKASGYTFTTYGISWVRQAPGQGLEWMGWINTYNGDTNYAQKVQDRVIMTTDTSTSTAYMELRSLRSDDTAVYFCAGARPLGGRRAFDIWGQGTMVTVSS VL: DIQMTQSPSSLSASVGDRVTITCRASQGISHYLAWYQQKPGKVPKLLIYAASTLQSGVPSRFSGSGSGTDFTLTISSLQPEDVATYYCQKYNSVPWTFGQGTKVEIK ?
95
